Values from ChEMBL document CHEMBL3991601

Target: Protein kinase C delta type (Homo sapiens); also: in the data inactive means no Kd found up to 30 µM
Sequence (Q05655 whole entry): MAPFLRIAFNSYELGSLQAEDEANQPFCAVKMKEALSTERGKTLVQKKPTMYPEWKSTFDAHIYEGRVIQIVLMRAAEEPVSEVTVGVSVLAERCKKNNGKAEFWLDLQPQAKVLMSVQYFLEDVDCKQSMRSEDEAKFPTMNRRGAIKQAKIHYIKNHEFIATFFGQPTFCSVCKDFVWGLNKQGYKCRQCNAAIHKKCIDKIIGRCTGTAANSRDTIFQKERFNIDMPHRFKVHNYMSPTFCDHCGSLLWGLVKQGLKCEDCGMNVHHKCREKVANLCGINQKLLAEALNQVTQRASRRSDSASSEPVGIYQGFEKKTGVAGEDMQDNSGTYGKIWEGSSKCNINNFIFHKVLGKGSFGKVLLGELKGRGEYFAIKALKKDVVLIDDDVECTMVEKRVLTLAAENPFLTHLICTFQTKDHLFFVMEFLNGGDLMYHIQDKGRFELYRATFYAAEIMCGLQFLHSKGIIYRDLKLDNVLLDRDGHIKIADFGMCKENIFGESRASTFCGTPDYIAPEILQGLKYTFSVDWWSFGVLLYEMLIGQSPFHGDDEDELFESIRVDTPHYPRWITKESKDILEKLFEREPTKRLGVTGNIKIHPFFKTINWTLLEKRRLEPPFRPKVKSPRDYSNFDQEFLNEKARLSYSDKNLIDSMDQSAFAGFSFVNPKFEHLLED
Activity calls are given as the source filed them.
Outcomes: active, inactive

structureNotation | assignedLabel
CCc1cc2c(cc1N1CCC(N3CCOCC3)CC1)C(C)(C)c1[nH]c3cc(C#N)ccc3c1C2=O | inactive
FC(F)(F)c1ccc(CNc2ccc(Cc3c[nH]c4ncc(Cl)cc34)cn2)cn1 | inactive
CCN(CCCOc1ccc2c(Nc3cc(CC(=O)Nc4cccc(F)c4)n[nH]3)ncnc2c1)CCOP(=O)(O)O | inactive
C=CC(=O)Nc1cccc(Nc2nc(Nc3ccc(N4CCN(C(C)=O)CC4)cc3OC)ncc2C(F)(F)F)c1 | inactive
CN1CCN(c2nc(C3=C(c4c[nH]c5ccccc45)C(=O)NC3=O)c3ccccc3n2)CC1 | active
O=c1[nH]c([C@@H]2CCCN2)nc2c1oc1ccc(Cl)cc12 | inactive
Cc1cc(Nc2nc(N[C@@H](C)c3ncc(F)cn3)ncc2Cl)n[nH]1 | inactive
C#Cc1cccc(Nc2ncnc3cc4c(cc23)OCCOCCOCCO4)c1 | inactive
O=C(NC[C@H](O)CO)c1ccncc1Nc1ccc(I)cc1F | inactive
Cc1c(NC(=O)OC[C@@H]2COCCN2)cn2ncnc(Nc3ccc4c(cnn4Cc4cccc(F)c4)c3)c12 | inactive
c1cc(OCCN2CCCCC2)cc(-c2n[nH]c3ccc(-c4nc[nH]n4)cc23)c1 | inactive
NC(=O)c1ccc(N(C(N)=O)c2c(F)cccc2F)nc1-c1ccc(F)cc1F | inactive
COc1cc2ncnc(Nc3ccc(O)cc3)c2cc1OC | inactive
Cn1c(=O)c(F)c(Nc2ccc(I)cc2F)c2c(=O)n(C[C@@H](O)CO)cnc21 | inactive
C=CCn1c(=O)c2cnc(Nc3ccc(N4CCN(C)CC4)cc3)nc2n1-c1cccc(C(C)(C)O)n1 | inactive
Cc1cc(C(=O)Nc2cc(Oc3ccc4nc(NC(=O)C5CC5)cn4n3)ccc2C)n(C)n1 | inactive
O[C@H]1CC[C@H](Nc2ncc3nc(Nc4c(F)cc(F)cc4F)n([C@H]4CCOC4)c3n2)CC1 | inactive
COc1cccc2cc(-c3nc([C@H]4CC[C@H](C(=O)O)CC4)n4ncnc(N)c34)[nH]c12 | inactive
CNC(=O)c1cc(COc2nnc(Nc3ccc(Cl)cc3)c3ccoc23)ccn1 | inactive
N#CCNC(=O)c1ccc(-c2ccnc(Nc3ccc(N4CCOCC4)cc3)n2)cc1 | inactive
Cn1c(=O)n(-c2ccc(C(C)(C)C#N)cc2)c2c3cc(-c4cnc5ccccc5c4)ccc3ncc21 | inactive
CCc1nc(C(N)=O)c(Nc2ccc(N3CCC(N4CCN(C)CC4)CC3)c(OC)c2)nc1NC1CCOCC1 | inactive
CCOc1ccn(-c2ccc(F)cc2)c(=O)c1C(=O)Nc1ccc(Oc2ccnc(N)c2Cl)c(F)c1 | inactive
Cn1cc(-c2[nH]c3cc(NC(=O)[C@H](N)C4CCCCC4)cc4c3c2C=NNC4=O)cn1 | inactive
CC(C)(O)CC(=O)NCCn1ccc2ncnc(Nc3ccc(Oc4cccc(C(F)(F)F)c4)c(Cl)c3)c21 | inactive
CNC(=O)c1cccc(-c2ccc3c(N4CCOC[C@@H]4C)nc(N4CCOC[C@@H]4C)nc3n2)c1 | inactive
CNC(=O)c1ccc(Nc2ncc(C(F)(F)F)c(NCc3nccnc3N(C)S(C)(=O)=O)n2)cc1 | inactive

----------
Biological target: LIM domain kinase 1 (Homo sapiens); also: in the data inactive means no Kd found up to 30 µM
Sequence (P53667 whole entry, the tested form may be a part): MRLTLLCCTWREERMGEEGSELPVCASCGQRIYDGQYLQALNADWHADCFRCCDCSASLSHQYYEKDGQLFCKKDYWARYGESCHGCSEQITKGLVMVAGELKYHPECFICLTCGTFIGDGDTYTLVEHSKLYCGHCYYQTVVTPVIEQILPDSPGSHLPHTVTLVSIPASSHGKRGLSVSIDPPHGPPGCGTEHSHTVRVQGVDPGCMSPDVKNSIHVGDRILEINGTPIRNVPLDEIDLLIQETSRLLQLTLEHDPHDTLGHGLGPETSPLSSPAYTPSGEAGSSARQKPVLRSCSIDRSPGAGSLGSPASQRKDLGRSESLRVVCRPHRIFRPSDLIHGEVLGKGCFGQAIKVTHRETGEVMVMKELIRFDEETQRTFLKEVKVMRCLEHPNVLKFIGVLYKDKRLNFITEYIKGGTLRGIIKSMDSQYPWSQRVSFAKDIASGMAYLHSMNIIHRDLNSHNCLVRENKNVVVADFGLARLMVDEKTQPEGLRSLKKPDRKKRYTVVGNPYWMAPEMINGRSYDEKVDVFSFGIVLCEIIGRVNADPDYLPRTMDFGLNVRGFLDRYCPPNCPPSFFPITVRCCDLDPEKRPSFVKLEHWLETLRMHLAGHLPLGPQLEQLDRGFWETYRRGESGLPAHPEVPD
Active and inactive are the calls of the source.
Possible outcomes: 1 (active), -1 (inactive)

molecule | assignedLabel
CC[C@@](C)(Nc1ccnc(-c2c[nH]c3ncccc23)n1)C(=O)NCC(F)(F)F [DECERNOTINIB] | -1
O[C@H]1CC[C@H](Nc2ncc3nc(Nc4c(F)cc(F)cc4F)n([C@H]4CCOC4)c3n2)CC1 [TANZISERTIB] | 1
Cc1c(NC(=O)OC[C@@H]2COCCN2)cn2ncnc(Nc3ccc4c(cnn4Cc4cccc(F)c4)c3)c12 [AC-480] | -1
Cn1c(=O)c(F)c(Nc2ccc(I)cc2F)c2c(=O)n(C[C@@H](O)CO)cnc21 [TAK-733] | -1
